Each recorded value in this set is attributed to the supplement of paper PMC10567573.

# protein stability index per entry
B1: MNAT1 (parent)
chain: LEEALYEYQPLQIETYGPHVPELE

# Variants of: B1
# assay procedure: protein stability index of a GFP-peptide fusion (GPS, HEK-293T) (PSI 1-6); higher = more stable;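 also: lentivirally expressed fusions sorted by FACS into six bins by GFP to DsRed ratio, PSI derived from sequencing read proportions per bin multiplied by bin number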
# study conditions: c terminus: a fixed tail appended
Lab note: record the figure alone, no unit after it.

L11G	5.26
L5M	4.64
Y16G	4.52
E3A	2.43
T15P	4.55
E22I	1.84
Q12C	2.14
E2M	2.71

*Q* Endpoint output: protein stability index of Q12L . Value?
*A* 2.67

*Q* What measured protein stability index goes with E22M ?
*A* 2.35

*Q* I would be grateful if you could share the reported protein stability index for L23R .
*A* 3.99

*Q* Requested field: protein stability index. Item: A4V
*A* 1.91

*Q* For the variant shown here, I13R , give the reported protein stability index.
*A* 4.76

*Q* Tell me the measured protein stability index of L5R , please.
*A* 4.32

*Q* Please give the measured protein stability index for this variant: E7H
*A* 2.11

*Q* Given the variant E2N , what is its reported protein stability index?
*A* 2.4

*Q* Fill in: protein stability index of G17D is ___
*A* 2.21

*Q* I would be grateful if you could share the reported protein stability index for E3P .
*A* 4.05

*Q* Dear colleague, I am looking for the recorded protein stability index of the following variant: H19M
*A* 2.09
